Molecular target: β-galactosidase (Escherichia coli, UniProt P00722)
Construct: purchased Sigma Aldrich
Sequence (P00722 2-1024): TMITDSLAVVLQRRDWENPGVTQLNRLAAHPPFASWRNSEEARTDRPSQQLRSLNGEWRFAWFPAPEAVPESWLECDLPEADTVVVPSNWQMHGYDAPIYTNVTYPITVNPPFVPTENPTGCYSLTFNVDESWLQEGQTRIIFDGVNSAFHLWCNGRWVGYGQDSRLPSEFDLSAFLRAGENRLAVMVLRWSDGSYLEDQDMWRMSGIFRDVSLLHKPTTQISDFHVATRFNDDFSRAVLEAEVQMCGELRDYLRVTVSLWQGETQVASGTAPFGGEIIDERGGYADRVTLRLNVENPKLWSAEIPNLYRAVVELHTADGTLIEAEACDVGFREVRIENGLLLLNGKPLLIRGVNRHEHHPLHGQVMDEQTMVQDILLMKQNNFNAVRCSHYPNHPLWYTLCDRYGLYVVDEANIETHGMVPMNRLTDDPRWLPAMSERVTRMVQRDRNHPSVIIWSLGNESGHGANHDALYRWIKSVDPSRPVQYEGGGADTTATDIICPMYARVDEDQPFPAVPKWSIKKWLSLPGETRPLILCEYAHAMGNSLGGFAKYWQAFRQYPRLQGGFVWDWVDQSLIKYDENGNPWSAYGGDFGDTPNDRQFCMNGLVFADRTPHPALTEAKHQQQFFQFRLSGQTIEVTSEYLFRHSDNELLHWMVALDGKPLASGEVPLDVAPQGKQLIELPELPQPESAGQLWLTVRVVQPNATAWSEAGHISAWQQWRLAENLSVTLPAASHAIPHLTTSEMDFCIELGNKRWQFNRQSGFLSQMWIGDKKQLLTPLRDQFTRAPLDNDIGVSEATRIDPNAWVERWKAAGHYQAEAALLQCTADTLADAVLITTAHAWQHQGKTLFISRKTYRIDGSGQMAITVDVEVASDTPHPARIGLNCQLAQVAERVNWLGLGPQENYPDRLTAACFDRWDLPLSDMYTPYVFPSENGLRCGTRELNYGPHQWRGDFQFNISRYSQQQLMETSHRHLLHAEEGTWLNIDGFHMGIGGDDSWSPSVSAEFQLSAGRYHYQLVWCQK
Format: biochemical
Details: 25° C., TES buffer, 1 mM MgCl2, 150 mM NaCl; nitro-phenol absorbance 420 nm
Experimental readout: Km (µM)

O=[N+]([O-])c1ccc(O[C@@H]2O[C@H](CO)[C@H](O)[C@H](O)[C@H]2O)cc1 [PNPG, para-nitrophyenyl-[…]-galactoside, reference compound]	61
O=C([O-])CN1CCN(CCNC(=O)OCc2ccc(O[C@@H]3O[C@H](CO)[C@H](O)[C@H](O)[C@H]3O)c([N+](=O)[O-])c2)CCN(CC(=O)[O-])CCN(CC(=O)[O-])CC1.[Gd+3]	129
O=[N+]([O-])c1ccccc1O[C@@H]1O[C@H](CO)[C@H](O)[C@H](O)[C@H]1O [ONPG, ortho-nitrophyenyl-[…]-galactoside, reference compound]	120
O=C([O-])CN1CCN(CCNC(=O)OCc2ccc([N+](=O)[O-])c(O[C@@H]3O[C@H](CO)[C@H](O)[C@H](O)[C@H]3O)c2)CCN(CC(=O)[O-])CCN(CC(=O)[O-])CC1.[Gd+3]	791
O=C([O-])CN1CCN(CCNC(=O)OCc2cc([N+](=O)[O-])ccc2O[C@@H]2O[C@H](CO)[C@H](O)[C@H](O)[C@H]2O)CCN(CC(=O)[O-])CCN(CC(=O)[O-])CC1.[Gd+3]	272
